Where do these numbers come from? They come from patent US11352350B2.

The reader will find reported DC50 values listed item by item below.
- tested_on: UniProt:Q9NWZ3
- assay_remarks: IRAK4 MSD degradation in OCI-LY10
- Assay type: cell-based
- measurement_conditions: OCI-LY10, 4 hrs, MSD; read-out: IRAK4 MSD degradation in OCI-LY10 at 4 hrs: Average external-Abs DC50

Check out these entries, answers already filled in.
{"molecule": "Cn1c(=O)n(C2CCC(=O)NC2=O)c2cccc(CCCOC3CCN(C[C@H]4CC[C@H](n5cc(NC(=O)c6cnn7ccc(NCC8CC8)nc67)c(C(C)(C)O)n5)CC4)CC3)c21 (some centres unmarked)", "DC50": "100 to 1000 nM"}
{"molecule": "CN(C[C@H]1CC[C@H](n2cc3cc(NC(=O)c4cccc(C(F)(F)F)n4)c(C(C)(C)O)cc3n2)CC1)C1CCN(Cc2cccc3c2n(C)c(=O)n3C2CCC(=O)NC2=O)CC1 (some centres unmarked)", "DC50": "< 10 nM"}
{"molecule": "CN(CC1CCN(Cc2cccc3c2n(C)c(=O)n3C2CCC(=O)NC2=O)CC1)C[C@H]1CC[C@H](n2cc(NC(=O)c3coc(-c4ccnc(NCC5CC5)c4)n3)c(C(F)F)n2)CC1 (some centres unmarked)", "DC50": "< 10 nM"}

Query :: Fill in: DC50 of CN(CCOCCCc1cccc2c1N(C)C(=O)C2C1CCC(=O)NC1=O)CC[C@H]1CC[C@H](n2cc(NC(=O)c3coc(-c4ccnc(NCC5CC5)c4)n3)c(C(F)F)n2)CC1 (some centres unmarked) is ___
Result :: 10 to 100 nM

Query :: One more molecule: Cn1c(=O)n(C2CCC(=O)NC2=O)c2ccc(CCCOCCC(=O)N3CCN([C@H]4CC[C@H](Nc5ncnc6[nH]cc(C7CCOCC7)c56)CC4)CC3)cc21 (some centres unmarked)
Result :: > 1000 nM

====

- tested_on: IRAK4 (Homo sapiens (Human))
- Sequence (Q9NWZ3 whole entry): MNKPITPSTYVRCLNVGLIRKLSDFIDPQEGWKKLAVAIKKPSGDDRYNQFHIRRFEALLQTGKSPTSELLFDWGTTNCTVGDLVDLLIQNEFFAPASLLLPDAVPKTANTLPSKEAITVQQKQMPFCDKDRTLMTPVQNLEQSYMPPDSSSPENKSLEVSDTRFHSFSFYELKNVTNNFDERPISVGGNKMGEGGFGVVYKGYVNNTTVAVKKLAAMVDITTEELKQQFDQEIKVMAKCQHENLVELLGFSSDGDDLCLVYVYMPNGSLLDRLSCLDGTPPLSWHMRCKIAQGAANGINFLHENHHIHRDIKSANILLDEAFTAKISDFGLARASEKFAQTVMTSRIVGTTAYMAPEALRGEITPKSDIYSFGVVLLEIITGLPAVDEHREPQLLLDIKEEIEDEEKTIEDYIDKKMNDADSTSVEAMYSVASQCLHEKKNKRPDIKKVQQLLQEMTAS
- assay_remarks: IRAK4 MSD degradation in OCI-LY10
- Type: cell-based
- measurement_conditions: OCI-LY10, 4 hrs, MSD; read-out: IRAK4 MSD degradation in OCI-LY10 at 4 hrs: Average external-Abs DC50
The reader will find reported DC50 values listed item by item below.

Check out these entries, answers already filled in.
{"compound": "Cn1c(=O)n(C2CCC(=O)NC2=O)c2cccc(CCCOCC3CCN(C[C@H]4CC[C@H](n5cc(NC(=O)c6cnn7ccc(N8CCNCC8)nc67)c(C(F)F)n5)CC4)CC3)c21 (stereo partly drawn)", "measurement_name": "DC50", "value_measured": "< 0.01 µM"}
{"compound": "O=C1CCC(N2C(=O)c3cccc(NCCCOC4CCN(Cc5ccc(-n6cc(NC(=O)c7cnn8ccc(N9CCOCC9)nc78)c(C(F)F)n6)cc5)CC4)c3C2=O)C(=O)N1 (stereo not drawn)", "measurement_name": "DC50", "value_measured": "> 1 µM"}

Query :: Fill in: DC50 of Cn1c(=O)n(C2CCC(=O)NC2=O)c2ccc(CCCCOCCCCNC[C@H]3CC[C@H](n4cc(NC(=O)c5cnn6ccc(N7CCNCC7)nc56)c(C(F)F)n4)CC3)cc21 (stereo partly drawn) is ___
Result :: 0.01 to 0.1 µM

====

- Tested on: OCI-LY10
- assay_remarks: CTG Cell Viability Assay - OCI-LY10
- Format: cell-based, human
- measurement_conditions: Homo sapiens, OCI-Ly10, 96 h, OCI-LY10, 4 days; read-out: CTG Cell Viability Assay - OCI-LY10: Average external-IC50
- Method: Compound-mediated viability effect on OCI-LY10 or TMD8 was quantitatively determined using the CellTiter-Glo® Luminescent Cell Viability Assay kit from Promega (Catalog number G7570) following manufacturer's recommended procedures. […] The data was then analyzed by software Prism 7.0 from GraphPad and the dose response curves were fit using a three-parameter logistic equation to calculate IC50.
pIC50: −log10 of the molar value.
The reader will find reported pIC50 values listed item by item below.

Query :: Fill in: pIC50 of CN(C[C@H]1CC[C@H](n2cc(NC(=O)c3coc(-c4ccnc(NCC5CC5)c4)n3)c(C(F)F)n2)CC1)C1CCN(Cc2cccc3c2n(C)c(=O)n3[C@@H]2CCC(=O)NC2=O)CC1 is ___
Result :: > 7.30

Query :: One more compound: CC(C)(O)c1nn([C@H]2CC[C@H](CN3CCC(OCCNc4cccc5c4C(=O)N(C4CCC(=O)NC4=O)C5=O)CC3)CC2)cc1NC(=O)c1cnn2ccc(N3CCOCC3)nc12 (stereo partly shown)
Result :: 7.00 to 7.30

Query :: One more compound: CN(C[C@H]1CN(CCCc2ccc3c(c2)n(C)c(=O)n3C2CCC(=O)NC2=O)CCO1)C[C@H]1CC[C@H](n2cc(NC(=O)c3coc(-c4ccnc(NCC5CC5)c4)n3)c(C(F)F)n2)CC1 (stereo partly shown)
Result :: < 6.00

Query :: One more compound: O=C1CCC(N2C(=O)c3cccc(NCCCOC4CCN(C[C@H]5CC[C@H](n6cc(NC(=O)c7cnn8ccc(N9CC%10CC(C9)O%10)nc78)c(C(F)F)n6)CC5)CC4)c3C2=O)C(=O)N1 (stereo partly shown)
Result :: > 7.30

Query :: One more compound: O=C1CCC(N2C(=O)c3cccc(NCCc4ccc(C5CCN(C[C@H]6CC[C@H](n7cc(NC(=O)c8cnn9ccc(N%10C[C@H]%11C[C@@H]%10CO%11)nc89)c(C(F)F)n7)CC6)CC5)cc4)c3C2=O)C(=O)N1 (stereo partly shown)
Result :: 6.00 to 6.30

Query :: One more compound: Cn1c(=O)n(C2CCC(=O)NC2=O)c2ccc(CCCOCC3CCN(C[C@H]4CC[C@H](n5cc(NC(=O)c6coc(-c7ccnc(NCC8CC8)c7)n6)c(C(F)F)n5)CC4)CC3)cc21 (stereo partly shown)
Result :: < 6.00

Query :: One more compound: CN(CCCO[C@H]1C[C@H](Nc2cccc3c2C(=O)N(C2CCC(=O)NC2=O)C3=O)C1)C[C@H]1CC[C@H](n2cc(NC(=O)c3cnn4ccc(N5C[C@H]6C[C@@H]5CO6)nc34)c(C(F)F)n2)CC1 (stereo partly shown)
Result :: > 7.30

Query :: One more compound: O=C1CCC(n2c(=O)oc3cc(CCCOCCOCCNC[C@H]4CC[C@H](n5cc(NC(=O)c6coc(-c7ccnc(NCC8CC8)c7)n6)c(C(F)F)n5)CC4)ccc32)C(=O)N1 (stereo partly shown)
Result :: < 6.00

Query :: One more compound: CN(CCCOCCCNc1cccc2c1C(=O)N(C1CCC(=O)NC1=O)C2=O)C[C@H]1CC[C@H](n2cc3cc(NC(=O)c4cccc(C(F)(F)F)n4)c(C(C)(C)O)cc3n2)CC1 (stereo partly shown)
Result :: 6.30 to 7.00

Query :: One more compound: CN(CCOCCNCc1ccc2c(c1)n(C)c(=O)n2C1CCC(=O)NC1=O)C[C@H]1CC[C@H](n2cc(NC(=O)c3coc(-c4ccnc(NCC5CC5)c4)n3)c(C(F)F)n2)CC1 (stereo partly shown)
Result :: < 6.00
